Values were extracted from patent US6906033.

Below, each entry is listed with its recorded Ki.
- target_under_test: T1, human factor Xa (human, UniProt P00742 41-179; P00742 235-488)
- T1 chain 1: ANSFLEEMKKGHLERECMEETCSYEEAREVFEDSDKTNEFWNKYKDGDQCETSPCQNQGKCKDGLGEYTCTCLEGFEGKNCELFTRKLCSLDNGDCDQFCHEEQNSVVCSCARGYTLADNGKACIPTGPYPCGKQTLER
- T1 chain 2: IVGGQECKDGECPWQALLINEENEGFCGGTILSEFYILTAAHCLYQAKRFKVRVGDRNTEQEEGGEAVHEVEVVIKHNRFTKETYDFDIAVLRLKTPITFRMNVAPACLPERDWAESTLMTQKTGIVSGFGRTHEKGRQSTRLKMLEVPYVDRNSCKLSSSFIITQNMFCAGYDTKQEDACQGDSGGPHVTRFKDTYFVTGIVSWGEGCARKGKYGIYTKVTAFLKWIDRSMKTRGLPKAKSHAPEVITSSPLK
- assay_details: enzyme inhibition
reported_endpoint: Ki (nM)

>>> recorded_number("TW6189 (protein) EVVREVCSEQAETGPCRAMIWRWYFDVTEGKCAPFFYGGCYGNRNNFDTEEYCMAVCGSAI")
34
>>> recorded_number("TW6187 (protein) EVVREVCSEQAETGPCRAMIFRWYFDVTEGKCAPFFYGGCYGNRNNFDTEEYCMAVCGSAI")
15
>>> recorded_number("TW6188 (protein) EVVREVCSEQAETGPCRAMIYRWYFDVTEGKCAPFFYGGCYGNRNNFDTEEYCMAVCGSAI")
24
>>> recorded_number("TW6186 (protein) EVVREVCSEQAETGPCRAMHSRWYFDVTEGKCAPFFYGGCYGNRNNFDTEEYCMAVCGSAI")
11
